// data source = the supplement of paper PMC8728848

- ASSAY TARGET: Gal(b1-4)Glc
- PROCEDURE SUMMARY: glycan array binding signal (z-score within array); higher = stronger binding
- CONDITION INFO: glycan notation: IUPAC condensed, linker removed
Only a selection was taken, and the strongest signals are over-represented in it overall.
Give measured glycan array binding signal (z-score) for each item. Keep answers brief.
Give the value as a plain number.

Request: Would you kindly share the measured glycan array binding signal (z-score) for ZG16p (Homo sapiens), O60844 (protein) ARSSSYSGEYGGGGGKRFSHSGNQLDGPITALRVRVNTYYIVGLQVRYGKVWSDYVGGRNGDLEEIFLHPGESVIQVSGKYKWYLKKLLFVTDKGRYLSFGKDSGTSFNAVPLHPNTVLRFISGRSGSLIDAIGLHWDVYPSSCSRC ?
Result: -0.133

Request: Query: glycan array binding signal (z-score); subject: LBL-152 (Laetiporus bicolor), B0D650 (protein) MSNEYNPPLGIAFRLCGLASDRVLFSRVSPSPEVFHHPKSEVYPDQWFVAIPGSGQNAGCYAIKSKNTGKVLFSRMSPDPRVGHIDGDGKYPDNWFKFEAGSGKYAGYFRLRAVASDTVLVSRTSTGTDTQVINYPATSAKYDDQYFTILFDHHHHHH
Result: -0.156

Request: Entry FBG3 (Homo sapiens), Q9H4M3 (protein) MAVGNINELPENILLELFTHVPARQLLLNCRLVCSLWRDLIDLVTLWKRKCLREGFITEDWDQPVADWKIFYFLRSLHRNLLHNPCAEEGFEFWSLDVNGGDEWKVEDLSRDQRKEFPNDQVKKYFVTSYYTCLKSQVVDLKAEGYWEELMDTTRPDIEVKDWFAARPDCGSKYQLCVQLLSSAHAPLGTFQPDPATIQQKSDAKWREVSHTFSNYPPGVRYIWFQHGGVDTHYWAGWYGPRVTNSSITIGPPLP has what glycan array binding signal (z-score)?
Result: 0.009
